test system: Plasmodium falciparum; assay: GSK_TCMDC: Inhibition of Plasmodium falciparum 3D7 in whole red blood cells, using parasite LDH activity as an index of growth. Test compounds present at 2uM; assay type: functional
Below, each entry is listed with its recorded Inhibition.
// return numeric value only (unit: %, not printed)

The cases that follow already have their Inhibition on record.
Cc1ccoc1C(=O)Nc1ccc(-c2cccc(-c3nc4cccc(C)c4[nH]3)c2)cc1	95
CCN(CC)CCN(Cc1ccc(-c2ccc(C(F)(F)F)cc2)cc1)C(=O)Cn1c(CCc2c(F)cc(F)cc2F)nc(=O)c2ccccc21.O=C(O)C(O)C(O)C(=O)O	89

Answer with the recorded Inhibition for the compound listed here: CCCn1c(Sc2ccc(C#N)c([N+](=O)[O-])c2)nnc1-c1ccc(OC)cc1 94

Answer with the recorded Inhibition for the compound listed here: CCc1cc2c3c(N)nc(N)nc3ccc2n1C(C)CC (stereo not given) 100

Answer with the recorded Inhibition for the compound listed here: O=C(/C=C/c1ccc(Cl)c(Cl)c1)NCCCCCN1CCC(NC(=O)Nc2ccc(OC(F)F)cc2)CC1 100

Answer with the recorded Inhibition for the compound listed here: COc1ccc2nc(C)cc(Nc3ccc(Oc4ccc5ccccc5c4Cl)c(Cl)c3)c2c1 100

Answer with the recorded Inhibition for the compound listed here: O=C(Nc1ccc(C(=O)N2CCN(CCN3CCN(c4cccc(C(F)(F)F)c4)CC3)CC2)cc1)c1ccc(OC(F)(F)F)cc1 95

Answer with the recorded Inhibition for the compound listed here: CCS(=O)(=O)O.N=C(N)NC(=O)Nc1ccc(Cl)c([N+](=O)[O-])c1 97

Answer with the recorded Inhibition for the compound listed here: Cn1cncc1C(=O)Nc1cccc(-c2ccc(-c3nc4ccccc4[nH]3)s2)c1 100

Answer with the recorded Inhibition for the compound listed here: COc1cc(F)c2ncc(Cl)c([C@H](O)CN3CCC(NCc4ccc5c(n4)NC(=O)CO5)CC3)c2c1.Cl 99

Answer with the recorded Inhibition for the compound listed here: CCc1cc(Br)c(CNCCCNc2cc(=O)c3ccccc3[nH]2)s1.Cl 90

Answer with the recorded Inhibition for the compound listed here: O=c1cnc2ccc(F)cc2n1CCN1CCC(NCc2cc(-c3ccccc3)cs2)CC1 91

Answer with the recorded Inhibition for the compound listed here: CCc1n[nH]c(C(=O)Nc2cccc(N3CCCC3)c2)c1C 81

Answer with the recorded Inhibition for the compound listed here: Cc1ccc(CCNCC(O)c2cccc(C(F)(F)F)c2)cc1.Cl (stereo not given) 94

Answer with the recorded Inhibition for the compound listed here: CN(C(=O)c1cc2c(-c3cncnc3)cccc2[nH]1)c1ccccc1 92

Answer with the recorded Inhibition for the compound listed here: CSc1nc2cc3c(cc2n1C(=O)c1ccc(C)cc1)OCCO3 99

Answer with the recorded Inhibition for the compound listed here: N=C(N)NN=CC(=O)Nc1ccc(Cl)c(Cl)c1 97

Answer with the recorded Inhibition for the compound listed here: COc1ccccc1C1CCN(C2CCC(NC(=O)/C=C/c3ccc(C(F)(F)F)cc3F)CC2)CC1 (stereo not given) 95

Answer with the recorded Inhibition for the compound listed here: Br.CC1(C)NC(N)=NC(=N)N1OCCCc1c(Cl)cccc1Cl 95

Answer with the recorded Inhibition for the compound listed here: FC(F)(F)c1cccc(CCNc2nccc(NCc3ccc(Cl)cc3Cl)n2)c1 97

The measurements presented in this section are drawn from ChEMBL document CHEMBL1157539.
